Reported Cc (characteristic curvature) values for a set of compounds
EXPERIMENT_NOTES: Characteristic curvature (Cc) by salinity phase scans with reference surfactant C9E5
Assay type: physicochemical
CONDITION_NOTES: methodology of Example 1, C9E5 as reference surfactant
MEASURED_PROPERTY: Cc (characteristic curvature)

compound=C=CCc1ccc(O)c(OC)c1 observed_result=+2.8
compound=C=C(C)[C@@H]1CCC(C)=C[C@H]1c1c(O)cc(CCCCC)cc1O observed_result=+2.6
compound="CC(C)Cc1ccc(C(C)C(=O)O)cc1 (racemic)" observed_result=+4.9
compound=CCOC(=O)c1ccc(N)cc1 observed_result=+1.6
